biological target: cGMP-specific 3',5'-cyclic phosphodiesterase (Homo sapiens, UniProt O76074)
quantity.measured: IC50

Query :: Param readout = IC50; param system = cGMP-specific 3',5'-cyclic phosphodiesterase (Homo sapiens, UniProt O76074); param query = `COc1cc2c(cc1OC1CCCC1)CN(S(=O)(=O)c1ccc(NC(C)=O)cc1)CC2` ; response: value
Result :: > 100 µM

* * *

system: Rattus norvegicus; test: Anti-inflammatory activity in Sprague-Dawley rat model of LPS-induced asthma/COPD assessed as inhibition of neutrophilia in BALF at 10 mg/kg, po administered 30 mins prior to LPS challenge for 40 mins relative to control; format: functional
quantity.measured: inhibition in vivo at 10 mg/kg

compound	inhibition in vivo at 10 mg/kg
O=C(Nc1c(Cl)cncc1Cl)c1ccc(OC(F)F)c(OCC2CC2)c1 [ROFLUMILAST]	97.6%
COC(=O)C1Cc2cc(OC)c(OC3CCCC3)cc2CN1C(=O)c1ccc(OC(F)(F)F)cc1 (centres undefined)	45.3%
COc1cc2c(cc1OC1CCCC1)CN(S(=O)(=O)c1ccc(NC(C)=O)cc1)CC2	37.1%

Next:
Query :: Record request: inhibition in vivo at 10 mg/kg value, item COc1ccc(C2CNC(=O)C2)cc1OC1CCCC1 (centres undefined) [ROLIPRAM]
Result :: 32.5%

* * *

target: cGMP-inhibited 3',5'-cyclic phosphodiesterase 3B (Homo sapiens)
Sequence (Q13370 whole entry): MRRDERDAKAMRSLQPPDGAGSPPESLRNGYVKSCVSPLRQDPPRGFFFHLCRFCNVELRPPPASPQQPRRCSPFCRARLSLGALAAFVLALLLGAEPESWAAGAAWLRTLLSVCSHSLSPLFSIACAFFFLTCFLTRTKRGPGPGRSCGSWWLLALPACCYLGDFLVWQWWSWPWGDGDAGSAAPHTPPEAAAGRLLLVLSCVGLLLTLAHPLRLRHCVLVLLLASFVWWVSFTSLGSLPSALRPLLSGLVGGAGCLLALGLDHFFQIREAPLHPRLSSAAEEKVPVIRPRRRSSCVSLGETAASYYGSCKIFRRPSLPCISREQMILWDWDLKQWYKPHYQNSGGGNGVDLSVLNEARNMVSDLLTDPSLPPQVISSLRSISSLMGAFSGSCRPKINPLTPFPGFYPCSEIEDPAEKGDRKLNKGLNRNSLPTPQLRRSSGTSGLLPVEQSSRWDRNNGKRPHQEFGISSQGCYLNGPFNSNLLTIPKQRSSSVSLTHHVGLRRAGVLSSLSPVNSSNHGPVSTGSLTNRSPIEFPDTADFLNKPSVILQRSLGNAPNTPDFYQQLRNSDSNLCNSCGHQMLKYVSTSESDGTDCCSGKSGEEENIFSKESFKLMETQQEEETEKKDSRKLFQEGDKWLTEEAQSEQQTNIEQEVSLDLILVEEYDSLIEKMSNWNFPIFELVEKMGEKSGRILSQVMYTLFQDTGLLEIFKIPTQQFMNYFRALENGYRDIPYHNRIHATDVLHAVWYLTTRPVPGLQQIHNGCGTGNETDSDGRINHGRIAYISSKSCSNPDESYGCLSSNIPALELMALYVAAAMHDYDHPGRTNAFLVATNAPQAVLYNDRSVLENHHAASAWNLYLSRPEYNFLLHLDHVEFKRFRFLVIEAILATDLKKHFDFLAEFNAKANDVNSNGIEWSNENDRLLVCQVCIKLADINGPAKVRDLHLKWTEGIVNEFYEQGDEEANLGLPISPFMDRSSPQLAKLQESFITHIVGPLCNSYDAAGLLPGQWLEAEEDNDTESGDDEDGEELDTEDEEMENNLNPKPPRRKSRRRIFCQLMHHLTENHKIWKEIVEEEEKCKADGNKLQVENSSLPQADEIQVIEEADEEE
quantity.measured: IC50

Query :: Record request: IC50 value, item COC(=O)C1Cc2cc(OC)c(OC3CCCC3)cc2CN1C(=O)c1ccc(OC(F)(F)F)cc1 (stereo unspecified)
Result :: > 100 µM

* * *

biological target: High affinity cAMP-specific and IBMX-insensitive 3',5'-cyclic phosphodiesterase 8A (Homo sapiens, UniProt O60658)
Sequence (O60658 whole entry): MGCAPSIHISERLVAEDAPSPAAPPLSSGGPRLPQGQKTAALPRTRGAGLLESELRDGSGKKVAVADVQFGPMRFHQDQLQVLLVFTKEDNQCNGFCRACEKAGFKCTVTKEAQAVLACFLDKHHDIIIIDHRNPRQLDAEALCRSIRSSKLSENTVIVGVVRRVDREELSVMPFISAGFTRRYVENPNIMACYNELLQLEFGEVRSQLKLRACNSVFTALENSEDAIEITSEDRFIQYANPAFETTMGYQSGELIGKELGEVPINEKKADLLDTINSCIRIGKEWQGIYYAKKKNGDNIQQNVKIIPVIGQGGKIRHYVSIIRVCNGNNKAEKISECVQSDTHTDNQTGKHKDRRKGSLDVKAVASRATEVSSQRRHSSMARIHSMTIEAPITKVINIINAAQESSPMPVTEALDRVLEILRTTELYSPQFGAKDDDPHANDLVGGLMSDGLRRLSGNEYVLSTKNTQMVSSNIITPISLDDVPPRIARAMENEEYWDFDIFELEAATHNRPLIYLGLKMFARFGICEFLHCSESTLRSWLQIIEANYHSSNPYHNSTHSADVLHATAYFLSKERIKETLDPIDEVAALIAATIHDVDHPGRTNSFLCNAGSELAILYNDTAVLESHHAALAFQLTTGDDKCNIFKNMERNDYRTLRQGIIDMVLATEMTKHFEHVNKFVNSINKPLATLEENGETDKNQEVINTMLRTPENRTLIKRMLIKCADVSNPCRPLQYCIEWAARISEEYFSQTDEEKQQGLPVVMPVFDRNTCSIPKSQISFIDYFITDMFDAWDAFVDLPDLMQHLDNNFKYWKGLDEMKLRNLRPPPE
pIC50: −log10 of the molar value.
Below: a set of entries, each annotated with reported pIC50.

compound	quantity.measured	result
COC(=O)C1Cc2cc(OC)c(OC3CCCC3)cc2CN1C(=O)c1ccc(OC(F)(F)F)cc1 (configuration not stated)	pIC50	< 4.00

Next:
Query :: Record request: pIC50 value, item `COc1cc2c(cc1OC1CCCC1)CN(S(=O)(=O)c1ccc(NC(C)=O)cc1)CC2`
Result :: < 4.00

* * *

Below: a set of entries, each annotated with reported remaining at 4 h.
experiment: Stability in rat plasma assessed as parent compound remaining after 4 hrs; format: ADME, cell-free; conditions: read-out: Stability
Lab book: enter the figure in %, no units written.

Worked examples follow.
compound	remaining at 4 h / %
COC(=O)C1Cc2cc(OC)c(OC3CCCC3)cc2CN1C(=O)c1ccc(OC(F)(F)F)cc1 (stereo not drawn)	72.8
CCOC(=O)C1Cc2cc(OC)c(OC3CCCC3)cc2CN1C(=O)c1ccc(OC(F)(F)F)cc1 (stereo not drawn)	73.7

Next:
Query :: Record request: remaining at 4 h value, item COc1cc2c(cc1OC1CCCC1)CN(C(=O)c1ccc(OC(F)(F)F)cc1)C(C(=O)OCc1ccccc1)C2 (stereo not drawn)
Result :: 84.2

* * *

What follows is a record of pIC50 for 3',5'-cyclic-AMP phosphodiesterase 4B (Homo sapiens, UniProt Q07343).
pIC50 (log units): -log10 of the concentration in mol/L.

Worked examples follow.
molecule	pIC50
CNC(=O)C1Cc2cc(OC)c(OC3CCCC3)cc2CN1C(=O)c1ccc(OC(F)(F)F)cc1 (centres undefined)	4.79
COc1cc2c(cc1OC1CCCC1)CN(S(=O)(=O)c1ccc(NC(C)=O)cc1)CC2	6.02
COc1ccc(C(=O)N2CCc3cc(OC)c(OC4CCCC4)cc3C2)cc1	5.62

Query :: Record request: pIC50 value, item COc1cc2c(cc1OC1CCCC1)CN(C(=O)c1ccc(OC(F)(F)F)cc1)C(C(=O)N(C)C)C2 (centres undefined)
Result :: 5.09

Query :: Record request: pIC50 value, item `COc1ccc(C(=O)N2CCc3cc(OC)c(OC4CCCC4)cc3C2)cc1O`
Result :: 5.47

Query :: Record request: pIC50 value, item `COc1ccc(S(=O)(=O)N2CCc3cc(OC)c(OC4CCCC4)cc3C2)cc1`
Result :: 5.51

Query :: Record request: pIC50 value, item `COc1cccc(C(=O)N2CCc3cc(OC)c(OC4CCCC4)cc3C2)c1`
Result :: 4.71

Query :: Record request: pIC50 value, item COC(=O)C1Cc2cc(OC)c(OC3CCCC3)cc2CN1C(=O)c1ccc(OC(F)(F)F)cc1 (centres undefined)
Result :: 6.06

Query :: Record request: pIC50 value, item CCOC(=O)C1Cc2cc(OC)c(OC3CCCC3)cc2CN1C(=O)c1ccc(OC(F)(F)F)cc1 (centres undefined)
Result :: 5.79
